Test system: Acinetobacter baumannii
assay_summary: Antimicrobial activity against multidrug-resistant Acinetobacter baumannii AYE by microdilution broth method
Type: functional
Property: MIC; scope: individual compounds

>  <structure_smiles>
COc1cc2c(cc1OCCCC(=O)Nc1cc(C(=O)Nc3ccc(-c4cc(C(=O)N5CCSCC5)n(C)c4)cc3)n(C)c1)N=C[C@@H]1CCCN1C2=O

>  <assay_target>
Acinetobacter baumannii

>  <MIC>
2 µg/mL

$$$$
>  <structure_smiles>
COC(=O)c1cc(NC(=O)c2cc(NC(=O)CCCOc3cc4c(cc3OC)C(=O)N3CCC[C@H]3C=N4)cn2C)cn1C

>  <assay_target>
Acinetobacter baumannii

>  <MIC>
128 µg/mL

$$$$
>  <structure_smiles>
CCN(CC)C(=O)c1cc2cc(NC(=O)c3cc(NC(=O)CCCOc4cc5c(cc4OC)C(=O)N4CCC[C@H]4C=N5)cn3C)ccc2s1

>  <assay_target>
Acinetobacter baumannii

>  <MIC>
2 µg/mL

$$$$
>  <structure_smiles>
CCN(CC)C(=O)c1cc2cc(NC(=O)c3cc(NC(=O)CCCOc4cc5c(cc4OC)C(=O)N4CCC[C@H]4C=N5)cn3C)ccc2o1

>  <assay_target>
Acinetobacter baumannii

>  <MIC>
4 µg/mL

$$$$
>  <structure_smiles>
COC(=O)c1cc(NC(=O)c2cc3cc(NC(=O)c4cc(NC(=O)CCCOc5cc6c(cc5OC)C(=O)N5CCC[C@H]5C=N6)cn4C)ccc3s2)cn1C

>  <assay_target>
Acinetobacter baumannii

>  <MIC>
64 µg/mL

$$$$
>  <structure_smiles>
COc1cc2c(cc1OCCCC(=O)Nc1cc(C(=O)Nc3ccc(-c4cc(C(=O)N(C)C)n(C)c4)cc3)n(C)c1)N=C[C@@H]1CCCN1C2=O

>  <assay_target>
Acinetobacter baumannii

>  <MIC>
4 µg/mL

$$$$
